Numbers sourced from the kinase profiling compilation of Christmann-Franck et al. (2016).

assayTarget: MARK2 (human) (UniProt Q7KZI7)
Sequence (Q7KZI7 whole entry, looked up): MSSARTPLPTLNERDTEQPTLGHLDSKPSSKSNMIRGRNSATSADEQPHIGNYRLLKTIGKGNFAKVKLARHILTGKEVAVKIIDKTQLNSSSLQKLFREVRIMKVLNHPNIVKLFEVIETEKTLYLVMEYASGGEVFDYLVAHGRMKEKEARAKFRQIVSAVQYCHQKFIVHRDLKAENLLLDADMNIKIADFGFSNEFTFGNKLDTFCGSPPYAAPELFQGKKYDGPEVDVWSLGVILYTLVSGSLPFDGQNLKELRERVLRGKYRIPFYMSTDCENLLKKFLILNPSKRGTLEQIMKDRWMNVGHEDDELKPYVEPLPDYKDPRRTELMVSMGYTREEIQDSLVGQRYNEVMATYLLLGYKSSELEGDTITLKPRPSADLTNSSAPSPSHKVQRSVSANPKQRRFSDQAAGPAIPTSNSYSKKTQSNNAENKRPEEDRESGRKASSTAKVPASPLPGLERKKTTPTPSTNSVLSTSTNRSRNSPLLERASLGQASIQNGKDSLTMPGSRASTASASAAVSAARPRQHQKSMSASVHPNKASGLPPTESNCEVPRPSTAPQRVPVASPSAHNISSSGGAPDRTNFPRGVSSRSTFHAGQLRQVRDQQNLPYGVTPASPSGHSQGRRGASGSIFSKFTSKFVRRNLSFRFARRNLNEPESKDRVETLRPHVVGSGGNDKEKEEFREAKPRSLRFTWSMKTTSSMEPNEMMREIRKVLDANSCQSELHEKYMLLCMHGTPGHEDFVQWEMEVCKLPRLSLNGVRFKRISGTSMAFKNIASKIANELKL
experimentalProtocol: radiometric filter-binding kinase assay, Kinase HotSpot
particulars: compound 0.5 µM; ATP 10 µM
Exercise: state measured residual activity for each of the molecules provided.
Number plus unit, in that order.

residual activity of "FC(F)(F)c1ccc(/C=C/c2nc(COc3ccc(CCCCn4ccnn4)cc3)co2)cc1" , assay on MARK2 (human) (UniProt Q7KZI7), is 105%

residual activity of "O=c1c(-c2ccc(F)cc2)c(-c2ccncc2)[nH]n1-c1ccc(Cl)cc1" , assay on MARK2 (human) (UniProt Q7KZI7), is 88.8%

residual activity of "Cn1cc(/C=C2\C(=O)Nc3ccc(S(N)(=O)=O)cc32)c2ccccc21" , assay on MARK2 (human) (UniProt Q7KZI7), is 45.5%

residual activity of "N#Cc1c(NC(=O)c2cccc3ccccc23)sc2c1CCCC2" , assay on MARK2 (human) (UniProt Q7KZI7), is 105%

residual activity of "COc1cc2c(Nc3ccc(Br)cc3F)ncnc2cc1OCC1CCN(C)CC1" , assay on MARK2 (human) (UniProt Q7KZI7), is 107%

residual activity of "N#C/C(=C1/Nc2ccccc2S1)c1ccnc(NCCc2cccnc2)n1" , assay on MARK2 (human) (UniProt Q7KZI7), is 97.9%

residual activity of "CCCCc1c(-c2ccc(O)cc2)[nH]c2nccnc12" , assay on MARK2 (human) (UniProt Q7KZI7), is 76.1%

residual activity of "CCOc1cc2ncnc(Nc3cccc(Br)c3)c2cc1OCC" , assay on MARK2 (human) (UniProt Q7KZI7), is 94.5%

residual activity of "COc1cc2c(cc1OC)-c1[nH]nc(Nc3cccc(F)c3)c1C2" , assay on MARK2 (human) (UniProt Q7KZI7), is 77.2%

residual activity of "O=C1NC(=O)c2c1c1c3ccccc3[nH]c1c1[nH]c3cc(Br)ccc3c21" , assay on MARK2 (human) (UniProt Q7KZI7), is 40.4%

residual activity of "COc1cc2c(N3CCN(C(=O)Nc4ccc(OC(C)C)cc4)CC3)ncnc2cc1OCCCN1CCCCC1" , assay on MARK2 (human) (UniProt Q7KZI7), is 109%

residual activity of "Nc1ncnc2c1cnn2-c1ccccc1" , assay on MARK2 (human) (UniProt Q7KZI7), is 95.3%

residual activity of "O=c1[nH]c2ccccc2n1C1CCN(Cc2ccc(-c3nc4cc5[nH]cnc5cc4nc3-c3ccccc3)cc2)CC1" , assay on MARK2 (human) (UniProt Q7KZI7), is 92.2%

residual activity of "COc1cccc(-c2cc(=O)c3ccccc3o2)c1N" , assay on MARK2 (human) (UniProt Q7KZI7), is 84.9%

residual activity of "N#CCCc1ccc2c(c1)-c1[nH]c3ccc([N+](=O)[O-])cc3c1CC(=O)N2" , assay on MARK2 (human) (UniProt Q7KZI7), is 65.5%

residual activity of "Cc1cc(Nc2nc(-c3ccccc3)nc3ccccc23)n[nH]1" , assay on MARK2 (human) (UniProt Q7KZI7), is 89.6%

residual activity of "c1ccc(-c2cnc(Nc3ccc(OCCN4CCCC4)cc3)s2)cc1" , assay on MARK2 (human) (UniProt Q7KZI7), is 88%

residual activity of "N/C(=N\N=C/c1ccc(-c2cccc([N+](=O)[O-])c2)o1)N[N+](=O)[O-]" , assay on MARK2 (human) (UniProt Q7KZI7), is 108%

residual activity of "O=S(=O)(NCCNC/C=C/c1ccc(Br)cc1)c1cccc2cnccc12" , assay on MARK2 (human) (UniProt Q7KZI7), is 89.3%

residual activity of "COc1cc2ncnc(Nc3ccc(O)c(Br)c3)c2cc1OC" , assay on MARK2 (human) (UniProt Q7KZI7), is 94.5%

residual activity of "O=c1cc(N2CCOCC2)oc2c(-c3ccccc3)cccc12" , assay on MARK2 (human) (UniProt Q7KZI7), is 79.2%

residual activity of "O=C1NC(=O)c2cc(Nc3ccc(F)cc3)c(Nc3ccc(F)cc3)cc21" , assay on MARK2 (human) (UniProt Q7KZI7), is 98.2%
